Hey, just so you know, these numbers are from ChEMBL document CHEMBL3779859.

Quick reference for MIC among some compounds
- Test system: Pseudomonas aeruginosa
- procedure details: Antibacterial activity against Pseudomonas aeruginosa VW313 clinical isolate after 16 to 20 hrs by microdilution assay
- Type: functional
Peptide text beside a SMILES is read from it. * marks the point of attachment. Decanoyl = CCCCCCCCCC(=O)*

compound	MIC
CCCCCCCCCC(=O)NCCCC[C@H](NC(=O)[C@H](Cc1c[nH]c2ccccc12)NC(=O)[C@H](CCCNC(=N)N)NC(=O)[C@H](Cc1c[nH]c2ccccc12)NC(=O)[C@H](CCCNC(=N)N)NC(=O)[C@H](Cc1c[nH]c2ccccc12)NC(=O)[C@@H](N)CCCNC(=N)N)C(=O)O (H-RWRWRWK(Decanoyl)-OH)	32 µg/mL
C[C@@H](O)[C@H]1C(=O)N2C(C(=O)O)=C(S[C@@H]3CN[C@H](C(=O)N(C)C)C3)[C@H](C)[C@H]12	16 µg/mL
NC[C@H]1O[C@H](O[C@H]2[C@H](O)[C@@H](O[C@H]3O[C@H](CO)[C@@H](O)[C@H](N)[C@H]3O)[C@H](N)C[C@@H]2N)[C@H](N)C[C@@H]1O	16 µg/mL
CC(C)(O/N=C(\C(=O)N[C@@H]1C(=O)N2C(C(=O)[O-])=C(C[n+]3ccccc3)CS[C@H]12)c1csc(N)n1)C(=O)O	> 256 µg/mL
